Biological target: T1, Sla1-3, P32790
T1 sequence (P32790 344-424, looked up): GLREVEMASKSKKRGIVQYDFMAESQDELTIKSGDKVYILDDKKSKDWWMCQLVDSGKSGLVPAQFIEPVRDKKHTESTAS
Experiment: SPOT array
Conditions: median of control spots 5475
// values below are reported SPOT intensity
Answer as a number with no unit attached.

- Binder: "YSRKKLPVVLSKMTL"
  Measured Number: 12

## Input Which measured SPOT intensity value corresponds to `KKAPPPVVKPKPRNF` ?
## Output 0

## Input Which measured SPOT intensity value corresponds to `LASNSPPVYPKRIRH` ?
## Output 0

## Input Which measured SPOT intensity value corresponds to `NNFYRPLLRSVLVLL` ?
## Output 4

Source listed as paper PMC2756588.
